Biological target: D(3) dopamine receptor (Homo sapiens) (UniProt P35462)
Sequence (P35462 whole entry, looked up): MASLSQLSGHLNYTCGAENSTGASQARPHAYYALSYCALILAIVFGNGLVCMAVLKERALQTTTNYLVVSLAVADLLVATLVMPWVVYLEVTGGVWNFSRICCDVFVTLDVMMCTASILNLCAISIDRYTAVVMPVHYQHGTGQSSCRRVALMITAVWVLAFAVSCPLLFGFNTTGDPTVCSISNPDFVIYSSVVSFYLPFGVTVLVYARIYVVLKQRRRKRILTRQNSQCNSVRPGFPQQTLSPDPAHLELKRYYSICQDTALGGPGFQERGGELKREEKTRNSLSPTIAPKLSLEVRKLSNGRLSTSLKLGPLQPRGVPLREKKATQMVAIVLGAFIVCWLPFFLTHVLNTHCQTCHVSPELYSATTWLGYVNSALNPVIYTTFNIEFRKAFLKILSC
Assay: qHTS of D3 Dopamine Receptor Antagonist: qHTS; further: on the % scale 0 is the no-effect control and ±100 the full control effect
Details: D3R cells, DiscoveRx beta-arrestin luminescence, antagonist mode
The campaign covered roughly 360,000 compounds. About 9,100 (2.5%) were called active. Not shown: some 4% with an inconclusive outcome. No stated cut-off is given here; in the data, active means max response below about -50%; inconclusive means no clear call, values can overlap the other calls; inactive means above that. What follows is part of a selection rich in actives, with near analogues and random picks from the rest.
Mark one answer only. Choices: active, inactive

Please review the following examples before continuing.
CN1OC[C@@H]2CN(S(=O)(=O)c3cccc(C(F)(F)F)c3)[C@H](c3ccc(-c4cc5ccccc5o4)cc3)C[C@@H]21; inactive
OCCc1ccc(NCCc2ccco2)cc1; inactive
Cc1ccc(C(=O)NC2CC(C)(C)NC(C)(C)C2)c(C)c1; inactive
O=C(O)c1ccc(NS(=O)(=O)c2cccc3nsnc23)cc1; active
NC(=O)CSc1nnc(-c2cccc(S(=O)(=O)N3CCOCC3)c2)o1; inactive

Request: Record lookup: outcome of this test for CC(C)(C)N(CC#CCC(O)(c1ccccc1)C1CCCC1)CCO (stereo not given) ?
Result: inactive

* * *

Exercise: state measured max response, negative = inhibition for each of the compounds provided.
Target: D(3) dopamine receptor (Homo sapiens) (UniProt P35462)
Test: qHTS of D3 Dopamine Receptor Antagonist: qHTS; further: on the % scale 0 is the no-effect control and ±100 the full control effect
Conditions: D3R cells, DiscoveRx beta-arrestin luminescence, antagonist mode; active compounds read low
Hit rate of the full screen: of about 360,000 compounds, about 9,100 (2.5%) were called active. About 4% were inconclusive and are not listed. Shown is part of a subset that was picked to be rich in actives.
Answers are plain numbers, in %.

See these solved cases before continuing.
COCCCNc1nc2ccccc2nc1NS(=O)(=O)c1ccc(F)cc1; 0.291
COc1ccc(-c2cc(=O)oc3cc(OCC(=O)N(C)C4CCS(=O)(=O)C4)ccc23)cc1 (stereo not drawn); -51.8
Cc1ccc(C)c(OCC(=O)NNC(=O)C2CCC2)c1; 1.58
Cc1ccc(S(=O)(=O)Nc2nc3ccccc3nc2N2CCc3ccccc3C2)cc1; -50.8
Cc1ccc(C(C)(C)C)c(OCCCCN2CCCC2)c1; -80.6

Please look at the items below and tell me max response, negative = inhibition for each one, in order.
1. COc1ccc(NC(=O)C2Cc3c(-c4ccc(Cl)cc4)ccnc3O2)cc1 (stereo not drawn)
2. CC(=O)c1ccc(OCC(=O)N(C)C2CCS(=O)(=O)C2)cc1 (stereo not drawn)
3. CCn1c(=S)[nH]c2sc3c(c2c1=O)CCCCC3

Result:
1. 28.4
2. -0.617
3. -15.3

* * *

Biological target: D(3) dopamine receptor (Homo sapiens)
Test: qHTS of D3 Dopamine Receptor Antagonist: qHTS; further: on the % scale 0 is the no-effect control and ±100 the full control effect
Conditions: D3R cells, DiscoveRx beta-arrestin luminescence, antagonist mode; active compounds read low
The campaign covered roughly 360,000 compounds. About 9,100 (2.5%) were called active. Another 4% or so got no clear call; they are omitted. Many of the other results were omitted from the sample, so actives are more common in it than they were.
quantity.name: max response, negative = inhibition (%)
One number for each entry, in %.

See these solved cases before continuing.
COC(=O)[C@@]1(Sc2ccc(C)cc2)CC(=O)N(c2cccc(SC)c2)[C@@H]1c1ccccc1; 3.45
CCCC(=O)C1CCN(Cc2ccccc2)CC1; -29.3
N#Cc1ccc(C(C(=O)NCc2ccccc2)n2c(=O)c(-c3ccco3)nc3ccccc32)cc1 (centres undefined); -4.27

Please look at the items below and tell me max response, negative = inhibition for each one, in order.
1. NC(Cc1ccccc1)c1csc(Nc2cc(Oc3ccccc3)ncn2)n1 (centres undefined)
2. CSc1ccc(CNC(=O)C2(C)CCCN2C)cc1 (centres undefined)
3. O=CN1CCN(C2CC(=O)N(c3ccc4c(c3)OCO4)C2=O)CC1 (centres undefined)
4. COC(=O)C1(C(=O)OC)C[C@H](c2ccccc2)N(Cc2ccccc2OC)[C@@H]1c1ccccc1
5. COc1ccc(C(=O)N2CCC(C(=O)Nc3cccc(C)c3)CC2)cc1OC
6. COc1cccc(C2=CC(=O)C[C@H](c3ccc(F)cc3)C2)c1OC

Result:
[9.45, 0, -17.5, -25.4, 9.36, -8.44]

// data source = PubChem BioAssay AID652054
